Tested on: SK-MEL-2 melanoma
Experiment: NCI-60 one-dose screen, 48 h (100 = growth as untreated, 0 = no growth, -100 = all killed)
Details: 10 µM unless noted
Procedure: Growth inhibition of the SK-MEL-2 human tumor cell line is measured as a screen for anti-cancer activity. Cells are grown in 96 well plates and exposed to the test compound for 48 hours. Compounds are tested at a single concentration, which is 10^-5 M for most compounds. The reported endpoint is percent growth (GI% or GIPRCNT), where numbers from 0 - 100% represent growth inhibition, and numbers from -100% - 0 represent cell death. For example, a value of 40 represents 60% growth inhibition. […]
About 83,000 compounds went through this panel and 20% of them were active in at least one assay; those are over-represented in the sample as a whole.
Catalogue of growth readings, one per entry.
quantity.measured: growth (%)

INSERT INTO assay_data (compound, quantity_measured, reported) VALUES
  ('C=C1C(=O)O[C@H]2[C@H]1CC/C(COC(=O)CCCCCCCC(=O)OC/C1=C/CC[C@@]3(C)O[C@H]3[C@H]3OC(=O)C(=C)[C@@H]3CC1)=C\CC[C@@]1(C)O[C@@H]21', 'growth', 59.9),
  ('Cc1cccc2nc3c(n12)C(=O)C(=O)c1ccccc1-3', 'growth', 81.2),
  ('COC(=O)c1ccc2c(c1)NC(=O)[C@@H]1CCCN21', 'growth', 95),
  ('C=CCn1c(CN2CCN(c3cc4c(cc3F)c(=O)c(C(=O)O)cn4C3CC3)CC2)n[nH]c1=S', 'growth', 104),
  ('O=C(O)COc1ccc2c(=O)c3sc4c(=O)c5ccccc5c(=O)c4c3c(=O)c2c1', 'growth', 25.5),
  ('CSc1nc(-c2ccco2)c2c(N)[nH]nc2n1', 'growth', 99.3),
  ('N#Cc1c(-c2ccc(Cl)cc2)cc(-c2cc3ccccc3o2)nc1SCC(=O)c1ccc(Cl)cc1', 'growth', 91),
  ('Cc1cccc(C)c1NCc1nnc(-c2ccc(O)cc2)o1', 'growth', 104),
  ('COc1cc2cc(c1Cl)N(C)C(=O)C[C@H](OC(=O)[C@H](C)N(C)C(=O)CCS)C[C@]1(C)O[C@H]1[C@H](C)[C@@H]1C[C@@](O)(NC(=O)O1)[C@H](OC)/C=C/C=C(\C)C2', 'growth', 20),
  ('Cc1ccc(C2=N[C@H]3CCC[C@@H]3N(c3ccccc3)C(C(Cl)Cl)=N2)cc1', 'growth', 96.8),
  ('COc1ccc(-c2nc(C#N)c(NCC(c3ccc(Cl)cc3)N3CCCCC3)o2)cc1 (stereo not given)', 'growth', 109),
  ('O=C(Nc1nc2ccc(C(F)(F)F)cc2s1)c1cc(Cl)ccc1O', 'growth', -11.4),
  ('CC(=O)c1c(OCC#N)ccc2c(C)cc(=O)oc12', 'growth', 95.6),
  ('COc1ccc(Cl)c([N+](=O)[O-])c1', 'growth', 104),
  ('CC(=O)Nc1nc2c(c(N)c1C#N)C(c1cccc(Cl)c1)C1=C(CCCC1=O)N2c1sc2c(c1C#N)CCCC2 (stereo not given)', 'growth', 55.5),
  ('CN(CCC#N)C(=O)Nc1ccccc1', 'growth', 98.7),
  ('COc1ccc(-c2nc(C#N)c(NCC(c3ccco3)N3CCCC3)o2)cc1 (stereo not given)', 'growth', 53.3),
  ('CCCCn1c(=O)c(/C=C/C(=O)/C=C/c2ccc(O)c(OC)c2)cc2ccc(Cl)cc21', 'growth', 42.1),
  ('CCCCOc1nc2ccc(C)cc2cc1/C=C/C(=O)/C=C/c1ccc2c(c1)OCO2', 'growth', 69.6),
  ('Nc1c(C(=O)Nc2ccccn2)sc2nc3c(cc12)CCCCC3', 'growth', 44.2),
  ('COc1ccc2nc3nc4ccc[nH]c4cc3c2c1', 'growth', 108),
  ('COc1ccc(NC(=O)c2ccc(Nc3ncnc4[nH]c(C)c(C)c34)cc2)cc1', 'growth', 99.2),
  ('COc1ccc(-c2cc(-c3nnc(SCC(=O)Nc4ccc(C(C)=O)cc4)o3)c3ccccc3n2)cc1', 'growth', 40.1),
  ('Cc1cc(Cl)cc(CN(Cc2ccccc2)Cc2c(O)ccc3ccccc23)c1O', 'growth', 91),
  ('CCN(CC)c1ccc2c(c1)Oc1nc(N)c(C#N)c(N)c1C2Sc1ccc(OC)cc1 (stereo not given)', 'growth', -61.2),
  ('CCCNc1nc(C)[nH]c(=O)c1S', 'growth', 95.6),
  ('Oc1c(CCl)cc(Cl)cc1Cc1cc(Cl)cc(Cc2cc(Cl)cc(CCl)c2O)c1O', 'growth', -16.6),
  ('COc1ccc2cc(/C=C3\N=C(c4cc(OC)c(OC)c(OC)c4)OC3=O)c(OC)nc2c1', 'growth', 106),
  ('C=C(C)[C@@H]1CC[C@]2(C(=O)OCCOCCOCC[P+](c3ccccc3)(c3ccccc3)c3ccccc3)CC[C@]3(C)[C@H](CC[C@@H]4[C@@]5(C)CC[C@H](C)C(C)(C)[C@@H]5CC[C@]43C)[C@@H]12', 'growth', -71.3),
  ('COc1ccc2[nH]c3nc4cnccc4cc3c2c1', 'growth', 110);
